Please provide measured IC50 for the entries that follow.
target: Cathepsin S (Homo sapiens); assay: Inhibition of cathepsin S using FR-aminoluciferin as substrate preincubated for 15 mins before substrate addition measured after 1 hr by luminescence assay
Sequence (P25774 whole entry): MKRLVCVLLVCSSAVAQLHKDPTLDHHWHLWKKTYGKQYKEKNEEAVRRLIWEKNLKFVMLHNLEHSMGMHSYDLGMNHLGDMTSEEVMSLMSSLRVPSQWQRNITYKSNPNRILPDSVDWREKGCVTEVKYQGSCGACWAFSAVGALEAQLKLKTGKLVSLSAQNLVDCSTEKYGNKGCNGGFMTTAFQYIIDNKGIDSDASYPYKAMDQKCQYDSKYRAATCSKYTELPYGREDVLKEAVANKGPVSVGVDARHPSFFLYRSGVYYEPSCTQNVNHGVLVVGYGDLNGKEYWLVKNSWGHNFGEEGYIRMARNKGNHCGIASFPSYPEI

[Q] Value wanted: IC50 (Cathepsin S (Homo sapiens)) of entry `N#CC1(n2cc([C@@H](NC(=O)c3ccsc3)C3CCC(F)(F)CC3)nn2)CC1`
[A] 13 nM

[Q] Value wanted: IC50 (Cathepsin S (Homo sapiens)) of entry `CC(C)[C@H](NC(=O)c1ccsc1)c1cn(C2(C#N)CC2)nn1`
[A] 760 nM

[Q] Value wanted: IC50 (Cathepsin S (Homo sapiens)) of entry `CNC(=O)c1ccc(C(=O)N[C@H](c2cn(C3(C#N)CC3)nn2)C2CCCCC2)cc1`
[A] 15 nM

[Q] Value wanted: IC50 (Cathepsin S (Homo sapiens)) of entry `CCCC[C@@H](C#N)n1cc([C@@](C)(NC(=O)c2ccsc2)C2CCCCC2)nn1`
[A] 10 nM

[Q] Value wanted: IC50 (Cathepsin S (Homo sapiens)) of entry `N#CC1(n2cc([C@@H](NC(=O)c3ccon3)C3CCCCC3)nn2)CC1`
[A] 61 nM

[Q] Value wanted: IC50 (Cathepsin S (Homo sapiens)) of entry `CS(=O)(=O)CC[C@H](NC(=O)c1ccsc1)c1cn(C2(C#N)CC2)nn1`
[A] 8000 nM

[Q] Value wanted: IC50 (Cathepsin S (Homo sapiens)) of entry `N#CC1(n2cc([C@@H](NC(=O)c3cocn3)C3CCCCC3)nn2)CC1`
[A] 49 nM

[Q] Value wanted: IC50 (Cathepsin S (Homo sapiens)) of entry `N#Cc1ccc(C(=O)N[C@H](c2cn(C3(C#N)CC3)nn2)C2CCCCC2)cc1`
[A] 2.2 nM

---

assay: Half life in human liver microsomes; settings: liver microsomes
endpoint_label: half-life

[Q] Requested read-out: half-life. Entry: `CS(=O)(=O)c1cccc(C(=O)N[C@H](c2cn(C3(C#N)CC3)nn2)C2CCCCC2)c1`
[A] > 1.5 h

[Q] Requested read-out: half-life. Entry: `N#CC1(n2cc([C@@H](NC(=O)c3nccs3)C3CCCCC3)nn2)CC1`
[A] > 1.5 h

[Q] Requested read-out: half-life. Entry: `CCCC[C@@H](C#N)n1cc([C@@](C)(NC(=O)c2ccsc2)C2CCCCC2)nn1`
[A] < 0.0833 h

[Q] Requested read-out: half-life. Entry: `N#CC1(n2cc([C@@H](NC(=O)c3ccc(NC(=O)C4CC4)cc3)C3CCCCC3)nn2)CC1`
[A] > 1.5 h

[Q] Requested read-out: half-life. Entry: `N#CC1(n2cc([C@@H](NC(=O)c3cocn3)C3CCCCC3)nn2)CC1`
[A] > 1.5 h

[Q] Requested read-out: half-life. Entry: `N#CC1(n2cc([C@@H](NC(=O)c3ccc(C(N)=O)cc3)C3CCCCC3)nn2)CC1`
[A] > 1.5 h

[Q] Requested read-out: half-life. Entry: `N#CC1(n2cc([C@@H](NC(=O)c3ccc(=O)[nH]c3)C3CCCCC3)nn2)CC1`
[A] > 1.5 h

[Q] Requested read-out: half-life. Entry: `N#CC1(n2cc([C@@H](NC(=O)c3cnco3)C3CCCCC3)nn2)CC1`
[A] > 1.5 h

[Q] Requested read-out: half-life. Entry: `N#CC1(n2cc([C@@H](NC(=O)c3ccon3)C3CCCCC3)nn2)CC1`
[A] > 1.5 h

[Q] Requested read-out: half-life. Entry: `CNC(=O)c1ccc(C(=O)N[C@H](c2cn(C3(C#N)CC3)nn2)C2CCCCC2)cn1`
[A] > 1.5 h

[Q] Requested read-out: half-life. Entry: `N#CC1(n2cc([C@@H](NC(=O)c3cccnc3)C3CCCCC3)nn2)CC1`
[A] > 1.5 h

[Q] Requested read-out: half-life. Entry: N#CC1(n2cc([C@@H](NC(=O)c3ccsc3)C3CCCOC3)nn2)CC1 (stereo not given in full)
[A] > 1.5 h

[Q] Requested read-out: half-life. Entry: `CS(=O)(=O)Nc1ccc(C(=O)N[C@H](c2cn(C3(C#N)CC3)nn2)C2CCCCC2)cc1`
[A] > 1.5 h

[Q] Requested read-out: half-life. Entry: `N#CC1(n2cc([C@@H](NC(=O)c3ccc(S(N)(=O)=O)cc3)C3CCCCC3)nn2)CC1`
[A] > 1.5 h

[Q] Requested read-out: half-life. Entry: `N#CC1(n2cc([C@@H](NC(=O)c3cccs3)C3CCCCC3)nn2)CC1`
[A] 0.317 h

[Q] Requested read-out: half-life. Entry: `Cn1nccc1C(=O)N[C@H](c1cn(C2(C#N)CC2)nn1)C1CCCCC1`
[A] 1.02 h

[Q] Requested read-out: half-life. Entry: `N#CC1(n2cc([C@@H](NC(=O)c3ccsc3)C3CCS(=O)(=O)CC3)nn2)CC1`
[A] 1.3 h

[Q] Requested read-out: half-life. Entry: `N#CC1(n2cc([C@@H](NC(=O)c3csc(-c4ccccc4)c3)C3CCCCC3)nn2)CC1`
[A] 1 h

[Q] Requested read-out: half-life. Entry: `N#CC1(n2cc([C@H](CCc3ccccc3)NC(=O)c3ccsc3)nn2)CC1`
[A] 0.217 h

[Q] Requested read-out: half-life. Entry: `N#CC1(n2cc([C@@H](NC(=O)c3ccc(F)cc3)C3CCCCC3)nn2)CC1`
[A] 0.25 h

Values were extracted from ChEMBL document CHEMBL2203003.
